Entry source: PubChem BioAssay

Each entry below lists one item and its recorded composite z-score value.
- system: Calmodulin-1 (Homo sapiens)
- protocolNotes: small molecules binding calmodulin-1 with EGTA – biochemical, small-molecule microarray, Cy5-labelled CALM1, profiling panel (AID 1111);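 also: labelled calmodulin applied in Tris saline Tween buffer holding calcium plus EGTA and DTT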
- conditionDetails: Cy5-CALM1 binding fluorescence, higher = more signal
Provide a numeric answer; units are not to be included.

Use these answered entries as a reference point.
COc1cc(C(O)C2C=CC3C(=O)N(c4ccccc4)C(=O)C3N2Nc2ccccc2)cc(OC)c1OC (stereo not given) :: 1.84
CC=CC(O)C1C=CC2C(=O)NC(=O)C2N1Nc1ccc(Cl)cc1Cl (stereo not given) :: 0.498
Cc1ccc(S[C@]2(C(=O)NCc3ccccc3)CC(=O)N(Cc3ccccc3C(F)(F)F)[C@@H]2c2ccc(CO)cc2)cc1 :: -0.488
CC(C)=C1C(=O)C(c2ccccc2)=C2CN3C(=O)N(CCc4ccccc4)C(=O)[C@]3(C)[C@H]21 :: 1.16
COc1ccc([Si](C)(C)[C@H]2[C@H](CC(=O)N3Cc4ccccc4C[C@H]3CO)O[C@@]3(C(=O)N(C)c4c(Br)cc(C)cc43)[C@@H]2C)cc1 :: 0.0634

Give Calmodulin-1 (Homo sapiens) composite z-score for CC(C)=CCCC(C)=CC(O)C1C=CC2C(=O)NC(=O)C2N1Nc1ccc(Cl)cc1Cl (stereo not given) 1.69

What do we get for COc1ccc([Si](C)(C)[C@H]2[C@H](CC(=O)N3CCC[C@H]3CO)O[C@@]3(C(=O)N(Cc4ccc(N5CCCCC5=O)cc4)c4ccccc43)[C@@H]2C)cc1 ? 0.441

What do we get for CCOC(=O)C1=CC[C@@H](c2ccccc2)N(S(=O)(=O)c2ccc(C)cc2)[C@H]1c1ccccc1I ? 1.82

###

- Test system: Sam68 (KHDRBS1)
- protocolNotes: compounds binding KHDRBS1 protein – biochemical, small-molecule microarray, 635 nm fluorescence, primary screen (AID 1125);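 also: score merges 667 nm channel intensity with signal to noise over triplicate slides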
- conditionDetails: higher = more signal
Decision: composite z-score compared against 1; not below it gives YES, below it gives NO.

Please review the following examples before continuing.
C=CC1c2cc(O)c(OC)cc2CCN1C (stereo not given) :: NO
CC(C)=CCCC(C)=CC(O)C1C=CC2C(=O)NC(=O)C2N1Nc1ccc(Cl)cc1Cl (stereo not given) :: NO
COc1ccc([Si](C)(C)[C@@H]2[C@@H](CC(=O)N3Cc4ccccc4C[C@H]3CO)O[C@]3(C(=O)N(Cc4cccc(N5CCOC5=O)c4)c4ccccc43)[C@H]2C)cc1 :: YES
COC(=O)[C@@]1(Cc2ccc(F)cc2)[C@H]2c3cc(C(=O)N(C)C)n(C)c3C[C@H]2CN1C(=O)c1ccccc1 :: NO

Check this molecule for composite z-score at or above 1: CN1C(=O)C2C(C3CC3)C=C3CN(Cc4cccc(Cl)c4)[C@@H]([C@@H](O)Cc4ccccc4)C3C2C1=O (stereo not given in full) YES

What do we get for COCCOC(=O)N1C(=O)[C@@]2(c3cc(C#CCC(C(=O)OC)C(=O)OC)ccc31)[C@H](C(=O)Nc1nc3ccccc3s1)[C@H]1C(=O)O[C@H](c3ccccc3)[C@H](c3ccccc3)N1[C@@H]2c1ccc(OCCO)cc1 ? YES

What do we get for C=CCC(OC(C)=O)[C@@H]1[C@@H](N(Cc2ccc(-c3cccc(C(F)(F)F)c3)o2)C(=O)Cc2ccc(F)cc2)c2cc(OCCCO)ccc2N1C(=O)Cc1ccc2ccccc2c1 (stereo not given in full) ? NO

What do we get for C=C(CCCC)/C(=C/C[C@@H](OC(C)=O)c1ccc(CO)o1)c1cnc2ccccc2c1 ? YES

What do we get for CC(C)c1nc2cc(Br)ccc2c(=O)o1 ? NO

What do we get for CCCCC(O)C1C=CC2C(=O)N(c3ccccc3)C(=O)C2N1Nc1ccc(C#N)cc1 (stereo not given) ? YES

What do we get for COc1ccc([Si](C)(C)[C@@H]2[C@@H](CC(=O)N3CCC[C@H]3CO)O[C@]3(C(=O)N(Cc4cccc(N5CCCCC5=O)c4)c4ccccc43)[C@H]2C)cc1 ? YES

What do we get for COCCCN1C(=O)[C@@]2(c3ccc([N+](=O)[O-])cc3)CC(=O)N(CC34CC5CC(CC(C5)C3)C4)[C@@H]2c2ccc(CO)cc21 ? NO

What do we get for O=C1C=C(c2ccccc2)C(=O)C2=C1CC([C@H]1Oc3ccccc3S(=O)(=O)N3CCC[C@@H]13)=CC2 ? NO

What do we get for C=CCNC(=O)[C@H]1[C@@H]2C(=O)O[C@@H](c3ccccc3)[C@@H](c3ccccc3)N2[C@@H](c2ccc(OCCO)cc2)[C@]12C(=O)Nc1ccccc12 ? YES

What do we get for C=CCN1Cc2ccccc2[C@H]2OC(c3ccc(OCCCO)cc3)=N[C@@]2(CCS(=O)(=O)c2ccccc2)C1=O ? YES

###

- protocolNotes: plasmodial surface anion channel blockers, osmotic lysis – cell-based, P. falciparum Indochina, OD700, 2 h, primary screen (AID 1155);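 also: lysis reports solute entry through the parasite surface anion channel PSAC; channel blockers reduce lysis of infected cells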
- conditionDetails: P. falciparum Indochina infected erythrocytes, higher = more signal, called active from +8 up or from −8 down
Heads up, the class ranges for z-score are bottom: < 0.6; middle: ≥ 0.6 and < 3; top: ≥ 3

Please review the following examples before continuing.
C=C(C)[C@@H]1CC=C(C(O)C2C=CC3C(=O)N(c4ccccc4)C(=O)C3N2Nc2ccc([N+](=O)[O-])cc2)CC1 (stereo not given in full) :: middle
C=C(C)[C@@H]1CC=C(C(O)C2C=CC3C(=O)N(C)C(=O)C3N2Nc2ccc([N+](=O)[O-])cc2[N+](=O)[O-])CC1 (stereo not given in full) :: top
CCOC(=O)C[C@H]1[C@H](OC(=O)c2ccccc2-c2ccccc2)[C@@H](NC(=O)C2CCCCC2)c2cc(OCCCO)ccc2N1C(=O)c1ccc2ccccc2n1 :: bottom
[N-]=[N+]=Nc1ccccc1[C@H]1OC(c2ccc(OCCCO)cc2)=N[C@@]1(Cc1ccccc1)C(=O)NCC(O)CO (stereo not given in full) :: top
CN1C(=O)C2C(C1=O)C1C=C(c3ccc(CO)cc3)C2C(C2CC2)N1C (stereo not given) :: middle

Please report the category associated with COC(=O)c1cccc([C@H]2OC(=CC(=O)OC(C)C)C[C@@H](c3cccc(C(=O)OC)c3)O2)c1 , nothing else. top

What do we get for C=CCC(OC(C)=O)[C@@H]1[C@@H](N(Cc2ccc(-c3cccc(C(F)(F)F)c3)o2)C(=O)Cc2ccc(F)cc2)c2cc(OCCCO)ccc2N1C(=O)Cc1ccc2ccccc2c1 (stereo not given in full) ? bottom

What do we get for CC1=C([C@H](O)CCc2ccccc2)[C@H](CO)n2c(=O)n(-c3ccccc3)c(=O)n2C1 ? bottom

###

- system: Torsin-1A-interacting protein 1 (Homo sapiens)
- protocolNotes: compound microarray binding of lysate hLAP1 – cell lysate, small-molecule microarray, COS7 lysate, 635/667 nm fluorescence, primary screen (AID 1116)
- conditionDetails: 635 nm fluorescence, higher = more signal
Each entry below lists one item and its recorded composite z-score value.
Provide a numeric answer; units are not to be included.

Give Torsin-1A-interacting protein 1 (Homo sapiens) composite z-score for C#CCN1[C@@H](Cc2ccccc2)C(=O)O[C@H](Cc2ccccc2)[C@@H]1/C=C/C1CC1 0.436

What do we get for Cc1ccccc1C(O)C1C=CC2C(=O)N(c3ccccc3)C(=O)C2N1Nc1ccccc1 (stereo not given) ? 1.54

What do we get for C=C(CCCC)/C(=C/C[C@@H](OC(C)=O)c1ccc(CO)o1)c1cnc2ccccc2c1 ? 1.69

###

- protocolNotes: inhibition of PAO1 biofilm formation – strain PAO1, LB-PBS medium, absorbance 600 nm, primary screen (AID 1176); also: test concentration not given here
- conditionDetails: P. aeruginosa PAO1 growth/biofilm, A600, 12 h; higher = more signal
Activity calls are given as the source filed them. The rule behind the calls is not given here.
Each entry below lists one item and its recorded z-score value.

Use these answered entries as a reference point.
O=C1[C@H]2C=C(I)[C@H](C[C@@H]2c2ccccc2)[C@@]12CO2 :: 0.236 (inactive)
CC(C)C[C@@H]1NC(=O)[C@@H]2C[C@H](C(=O)NCCCCCCNC(=O)CS)[C@H](c3cccc(OCCO)c3)N2C1=O :: 0.863 (inactive)
CN1C(=O)C2C=CC(C(O)c3ccc(-c4ccccc4)s3)N(NC(=O)OC(C)(C)C)C2C1=O (stereo not given) :: 1.08 (inactive)
CCOC(=O)C[C@H]1[C@H](OC(=O)c2ccccc2-c2ccccc2)[C@@H](NC(=O)c2ccc3ccccc3c2)c2cc(OCCCO)ccc2N1C(=O)Cc1ccc(OC)cc1 :: -0.283 (inactive)
C[C@@H]1NC(=O)C([C@@H](C)OCc2ccccc2)NC(=O)[C@@]23C(=O)N[C@@H](Cc4ccccc4)C2[C@H](C)[C@@]2(C)O[C@H]2C3/C=C/C/C=C\CNC1=O (stereo not given in full) :: 0.625 (inactive)

Given CC(C)(C)N1CC=CC23O[C@@H]4/C=C\CCCOC(=O)C4[C@H]2C(=O)N(CCCCCO)[C@@H]3C1=O (stereo not given in full) , state its recorded z-score. 0.481 (inactive)

What do we get for COC(=O)[C@@]1(Cc2ccccc2)[C@H]2c3cc(C(=O)N(C)C)n(Cc4ccc(S(C)(=O)=O)cc4)c3C[C@H]2CN1C(=O)c1ccccc1 ? 1.47 (inactive)

What do we get for CC(C)NC(=O)[C@@H]1c2ccccc2C(=O)N(Cc2ccc(OC(F)(F)F)cc2)[C@H]1c1ccc(CO)cc1 ? 0.627 (inactive)

What do we get for CCCCCC1=C2CNC(Cc3ccccc3)(C(=O)OC)C=C2C(C)C1=O (stereo not given) ? 0.026 (inactive)

What do we get for COCCOC(=O)N1C(=O)[C@@]2(c3cc(C#CCNC(N)=O)ccc31)[C@H](C(=O)Nc1nc3ccccc3s1)[C@H]1C(=O)O[C@H](c3ccccc3)[C@H](c3ccccc3)N1[C@@H]2c1ccccc1OCCO ? 3.44 (inactive)
